tested on: Fer (mouse); experiment: phosphorylation enrichment, bacterial display (enrichment ratio); higher = better substrate or ligand; peptides without Tyr show the background;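 also: 11-residue human phosphosite peptides and single-mutation variants displayed on the E. coli surface, counted by deep sequencing, each peptide's frequency after selection divided by its frequency in the unselected input library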;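 also: frequency after pTyr selection over input frequency; kinase dosed for 20-30% of maximal phosphorylation in three min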
Using phosphorylation enrichment as the sorting value, the categories are b0 (below 0.4), b1 (0.4 to below 0.6), b2 (0.6 or more)

Answered examples (10):
residues	cat
LRYDVYGGENE [STOX1_Y610_E608D]	b2
EVVGGYSVHNA [MLH1_Y183_R182G]	b0
VIGRMYDFHVL [RPF2_Y109_YF]	b2
DGQSVYKLTDF [TBK1_Y153]	b2
DPHKIYEFVNS [IRF3_Y107]	b2
IDDNEYAYLKA [HNF4A_Y286]	b1
YDEYRYRSFIK [CFTR_Y517_V520F]	b2
LGKGSYAKVRS [TSSK2_Y23_K27R]	b2
IFRASYVPFAA [RBM47_Y541_G538R_YF]	b0
FPDFVYKRIKA [DPYSL2_Y479]	b1

Request: Given SRGSSYSSIPK [FLNC_Y2625] , name the class its phosphorylation enrichment places it in.
Response: b0

Request: Given SSKILYHIIKG [CDH17_Y489] , name the class its phosphorylation enrichment places it in.
Response: b0

Request: Given APQFTYAQGGQ [FLNA_Y1763_YF] , name the class its phosphorylation enrichment places it in.
Response: b0

Request: Given VSNFNYFFHRE [KCNA1_Y413_YF] , name the class its phosphorylation enrichment places it in.
Response: b1

Request: Given NYYDTYIKTCL [IQGAP2_Y1445] , name the class its phosphorylation enrichment places it in.
Response: b2

Request: Given EPYKVYRIVPE [IRF8_Y110] , name the class its phosphorylation enrichment places it in.
Response: b1

Request: Given PLFSKYWPNHI [GREB1L_Y1560_R1558S_YF] , name the class its phosphorylation enrichment places it in.
Response: b2
